- protocol-summary: Automated patch clamp (Tonic Block): Test Protocol for Determining the Potency of Compounds on Nav1.2 and Nav1.6 Subtypes of Voltage-Gated Sodium Ion Channels Expressed in Mammalian CellsCell culture procedures: Chinese hamster ovary (CHO) cells were stably transfected with the cDNA sequence of either the human SCN2A or SCN8A genes to create hNav1.2 or hNav1.6 cells respectively. The cell lines were cultured in Ham's F-12 medium supplemented with 10% fetal bovine serum and antibiotics in a tissue incubator at 37° C. under a humidified air/CO2 mixture (95/5 v/v). On the day of the experiment, cells were washed twice with Hank's balanced salt solution, treated with trypsin, and resuspended in fresh culture media at a density of 4−6×10^6 cells in 20 ml. Immediately before placing in the IonWorks Quattro instrument, cells were washed in Hank's balanced salt solution to remove culture medium and re-suspended in 3 ml of Hank's balanced salt solution. Automated patch clamp recordings of cells using the IonWorks Quattro Instrument: The assay used a 384 microwell plate, which enabled 20 compounds to be studied at four different concentrations in quadruplicate as well as allowing a vehicle control group and a positive control group using mexiletine at 8 different concentrations. Cells were added to the wells of the Population Patch Clamp planar electrode using a 48-channel pipettor in a volume of 6 μL, per well. After 5 minutes incubation at ambient temperature with compounds or vehicle, membrane currents were recorded using the patch clamp amplifier. The pulse pattern was repeated twice, before and after compound addition and peak current amplitudes were measured at TP11 to measure 10 Hz Frequency-dependent Block. Data analysis: Data acquisition and analyses were carried out using the IonWorks Quattro system operation software which uses an algorithm to correct data for leak currents. Concentration-response curves were fitted by non-linear least squares regression allowing calculation of an IC50 value (μM), being the concentration of the compound producing half-maximal inhibition.
observed-property: IC50

Answered examples (2):
[[record]]
cpd_smiles = "Cc1cccc(C)c1OCCCNCc1ccc(-c2ccccc2)cc1"
reading = "> 1000 µM"

[[record]]
cpd_smiles = "Cc1nn(C)c(C)c1OCCCNC(c1ccccn1)c1ccccn1"
reading = "> 10 µM"


### Prompt Tell me the measured IC50 of `Cc1cccc(C)c1OCCCNCc1cc(C(C)(C)C)cc(C(C)(C)C)c1` , please.
### Response > 10 µM
